Assay remarks: In vivo antitumor assay, Panc03(sc)
Design: species or system mice
Condition context: mouse, in vivo, iv, Panc03(sc), drug iv, qd 3-9, exp 910; read-out: MTD
Property label: MTD (mg/kg)
# unit: mg/kg | format: bare number

Note down MTD recorded for `Cc1cc(-c2c(F)cc3c4nn(CCN(C)C)c(=O)c-4cn(C4CC4)c3c2F)cc(C)n1.O=C(O)/C=C/C(=O)O` 45

###

Assay remarks: In vivo antitumor assay, B16(ip)
Parameters: species or system mice
Condition context: mouse, in vivo, drug ip, qd 1,5,9, exp SD-17, MTD not achieved, maximum dose tested
Below is a list of entries, each paired with its recorded MTD value.

                                   molecule      result
0  Cc1cc(-c2c(F)cc3c4nn([C@H]5CC[C@H](N(C)C)CC5)c(=O)c-4cn(C4CC4)c3c2F)cc(C)n1 [Example 51b]  > 99 mg/kg

Now for another entry.
Return MTD (reported value) for this molecule: Cc1cc(-c2c(F)cc3c4nn([C@H]5CC[C@@H](N(C)C)CC5)c(=O)c-4cn(C4CC4)c3c2F)cc(C)n1 [Example 51a] > 15 mg/kg

###

Assay remarks: In vivo antitumor assay, LC12(sc)
Parameters: species or system mice
Condition context: mouse, in vivo, drug iv, qd 3,5, exp 1161, MTD not achieved, maximum dose tested
Property label: MTD

Return MTD for the following molecule: `Cc1cc(-c2c(F)cc3c4nn(CCN(C)C)c(=O)c-4cn(C4CC4)c3c2F)cc(C)n1.O=C(O)/C=C/C(=O)O` > 35 mg/kg

###

Target or system: human topoisomerase II (Homo sapiens, UniProt P11388)
Construct: Topo II was purified from late log phase suspension cultures of HeLa WIS; endogenous in cells; host or cells: HeLa WIS
Sequence (P11388 whole entry): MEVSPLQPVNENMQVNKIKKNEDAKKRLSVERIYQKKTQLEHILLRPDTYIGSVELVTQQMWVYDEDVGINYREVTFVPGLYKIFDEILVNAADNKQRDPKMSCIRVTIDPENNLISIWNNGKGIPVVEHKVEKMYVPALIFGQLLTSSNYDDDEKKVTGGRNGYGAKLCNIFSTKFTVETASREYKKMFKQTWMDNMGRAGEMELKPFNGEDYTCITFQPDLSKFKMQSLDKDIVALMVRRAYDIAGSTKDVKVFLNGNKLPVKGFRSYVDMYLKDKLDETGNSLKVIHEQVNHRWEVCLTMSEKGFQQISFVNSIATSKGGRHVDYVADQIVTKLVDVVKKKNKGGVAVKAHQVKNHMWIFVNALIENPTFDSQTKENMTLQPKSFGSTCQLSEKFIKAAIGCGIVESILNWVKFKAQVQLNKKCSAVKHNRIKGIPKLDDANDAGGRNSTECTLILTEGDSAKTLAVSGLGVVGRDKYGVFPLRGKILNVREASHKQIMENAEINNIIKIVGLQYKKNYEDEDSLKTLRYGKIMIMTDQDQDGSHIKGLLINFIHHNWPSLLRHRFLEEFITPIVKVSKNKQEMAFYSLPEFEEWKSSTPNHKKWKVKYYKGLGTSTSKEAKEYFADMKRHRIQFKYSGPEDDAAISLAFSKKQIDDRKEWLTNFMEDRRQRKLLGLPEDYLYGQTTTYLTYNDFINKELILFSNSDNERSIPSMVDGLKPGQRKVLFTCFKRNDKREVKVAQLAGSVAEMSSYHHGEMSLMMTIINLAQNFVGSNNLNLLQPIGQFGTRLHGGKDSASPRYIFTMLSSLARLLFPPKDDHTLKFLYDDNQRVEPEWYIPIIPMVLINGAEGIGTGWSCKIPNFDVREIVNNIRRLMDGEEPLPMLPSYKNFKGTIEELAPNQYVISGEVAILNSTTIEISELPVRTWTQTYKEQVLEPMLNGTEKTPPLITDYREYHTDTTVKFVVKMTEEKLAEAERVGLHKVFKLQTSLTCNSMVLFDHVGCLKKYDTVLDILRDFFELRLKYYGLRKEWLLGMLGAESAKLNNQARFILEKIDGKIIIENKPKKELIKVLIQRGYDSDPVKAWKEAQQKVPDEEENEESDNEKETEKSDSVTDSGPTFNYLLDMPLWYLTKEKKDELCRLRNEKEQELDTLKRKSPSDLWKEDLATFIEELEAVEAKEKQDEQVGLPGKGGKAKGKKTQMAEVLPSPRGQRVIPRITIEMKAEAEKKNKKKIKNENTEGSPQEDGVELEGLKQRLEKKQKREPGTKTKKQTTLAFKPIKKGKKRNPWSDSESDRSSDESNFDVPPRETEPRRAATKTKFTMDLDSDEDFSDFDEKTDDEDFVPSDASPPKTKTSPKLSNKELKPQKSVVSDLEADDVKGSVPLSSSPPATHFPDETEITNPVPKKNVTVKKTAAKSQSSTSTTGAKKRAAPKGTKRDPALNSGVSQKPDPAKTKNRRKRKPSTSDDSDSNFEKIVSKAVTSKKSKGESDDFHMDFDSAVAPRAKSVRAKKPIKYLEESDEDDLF
Assay remarks: Mammalian topoisomerase II inhibition assay (topo II covalently attached to DNA, relative to mAMSA)
Type: biochemical
Condition context: read-out: topo II inh. EC50
Property label: EC50 (µM)
Report the figure in µM without appending any unit label.

                                   molecule  property_label  recorded_number
0  Cc1cc(-c2c(F)cc3c4nn(CCN5CCCCC5)c(=O)c-4cn(C4CC4)c3c2F)cc(C)n1 [Example 19]            EC50              210
1  CCN(CC)CCn1nc2c3cc(F)c(-c4cc(C)nc(C)c4)c(F)c3n(C3CC3)cc-2c1=O [Example 15]            EC50               93

// moving on: another record for EC50
Provide measured EC50 value, entry: Cc1cc(-c2c(F)cc3c4nn(CCN5CCCC5)c(=O)c-4cn(C4CC4)c3c2F)cc(C)n1 [Example 18] 650

###

Test system: P388 murine leukemia cells
Assay remarks: In vitro cytotoxicity, continuous (48-hour) exposure of P388 cells
Type: cell-based
Condition context: Mus musculus; P388, continuous exposure (48-hour); read-out: in vitro cytotoxicity IC50, cont. exp.
Property label: pIC50
Expect pIC50 as a plain number equal to -log10 of the molar concentration.

>>> df
                            chemical_smiles            target_or_system  recorded_number
0  Cc1cc(-c2c(F)cc3c4nn(-c5ccccn5)c(=O)c-4cn(C4CC4)c3c2F)cc(C)n1  P388 murine leukemia cells             6.13
1  CCN(CC)CCCn1nc2c3cc(F)c(-c4cc(C)nc(C)c4)c(F)c3n(C3CC3)cc-2c1=O  P388 murine leukemia cells             5.92

Specify pIC50 for `Cc1cc(-c2c(F)cc3c4nn(C5CCOCC5)c(=O)c-4cn(C4CC4)c3c2F)cc(C)n1` , system P388 murine leukemia cells. 6.60

Recall the reported pIC50 of `Cc1cc(-c2c(F)cc3c4n[nH]c(=O)c-4cn(C4CC4)c3c2F)cc(C)n1` on P388 murine leukemia cells and write it down. 5.44

Look up P388 murine leukemia cells data: pIC50 of `Cc1cc(-c2c(F)cc3c4nn(CCCN(C)C)c(=O)c-4cn(C4CC4)c3c2F)cc(C)n1` , then report it. 6.42

State, for P388 murine leukemia cells, measured pIC50 of the compound listed here: `Cc1cc(-c2c(F)cc3c4nn(-c5cccc6ccccc56)c(=O)c-4cn(C4CC4)c3c2F)cc(C)n1` 6.49

# return pIC50 of `Cc1cc(-c2c(F)cc3c4nn(CCNCCO)c(=O)c-4cn(C4CC4)c3c2F)cc(C)n1` (system: P388 murine leukemia cells) 5.92

# lookup: P388 murine leukemia cells pIC50, key = `Cc1cc(-c2c(F)cc3c4nn(C(C)C)c(=O)c-4cn(C4CC4)c3c2F)cc(C)n1` 6.28
